# SYSTEM: KiSS-1 receptor (Homo sapiens, UniProt Q969F8)
# Sequence (Q969F8 whole entry): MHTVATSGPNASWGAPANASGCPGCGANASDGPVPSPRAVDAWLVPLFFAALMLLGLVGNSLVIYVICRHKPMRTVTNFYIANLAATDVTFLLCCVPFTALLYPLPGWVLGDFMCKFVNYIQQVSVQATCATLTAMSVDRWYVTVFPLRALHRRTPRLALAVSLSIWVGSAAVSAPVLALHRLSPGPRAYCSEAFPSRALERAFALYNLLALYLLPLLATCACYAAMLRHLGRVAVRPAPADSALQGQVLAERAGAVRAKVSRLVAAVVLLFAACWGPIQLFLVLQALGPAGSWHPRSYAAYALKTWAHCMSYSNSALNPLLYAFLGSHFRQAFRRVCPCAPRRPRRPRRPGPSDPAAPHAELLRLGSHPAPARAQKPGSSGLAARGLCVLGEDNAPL
# PROCEDURE DETAILS: Displacement of [125I]metastin(40-54) from human GPR54 receptor expressed in CHO cells after 60 mins by scintillation counting
# Type: cell-based
pIC50: −log10 of the molar value.

# COMPOUND, SYSTEM, RELATION SIGN, pIC50
data = [
    ("N#Cc1c(-c2cccc(NC(=O)CCN)c2)cc(-c2ccc(Cl)cc2O)nc1NC(=O)c1cccs1", "KiSS-1 receptor (Homo sapiens, UniProt Q969F8)", "=", 8.01),
    ("N#Cc1c(-c2cccc(N)c2)cc(-c2ccccc2O)nc1NC(=O)c1cccs1", "KiSS-1 receptor (Homo sapiens, UniProt Q969F8)", "=", 5.68),
    ("Cc1ccc(-c2cc(-c3cccc(NC(=O)CCN)c3)c(C#N)c(NC(=O)c3cccs3)n2)c(O)c1", "KiSS-1 receptor (Homo sapiens, UniProt Q969F8)", "=", 7.92),
    ("N#Cc1c(-c2cccc(NC(=O)CCN)c2)cc(-c2cc(Cl)ccc2O)nc1NC(=O)c1cccs1", "KiSS-1 receptor (Homo sapiens, UniProt Q969F8)", "=", 6.31),
    ("COc1ccccc1-c1cc(-c2cccc(N)c2)c(C#N)c(NC(=O)c2cccs2)n1", "KiSS-1 receptor (Homo sapiens, UniProt Q969F8)", "<", 4.52),
    ("N#Cc1c(-c2cccc(NC(=O)CCN)c2)cc(-c2ccccc2N)nc1NC(=O)c1ccccc1", "KiSS-1 receptor (Homo sapiens, UniProt Q969F8)", "=", 6.05),
    ("Cc1c(-c2ccccc2O)nc(NC(=O)c2ccco2)c(C#N)c1-c1cccc(NC(=O)CCN)c1", "KiSS-1 receptor (Homo sapiens, UniProt Q969F8)", "=", 5.92),
    ("N#Cc1c(-c2cccc(C(=O)O)c2)cc(-c2ccccc2O)nc1NC(=O)c1cccs1", "KiSS-1 receptor (Homo sapiens, UniProt Q969F8)", "=", 5.00),
    ("N#Cc1c(-c2ccc(C(=O)NCCN)cc2)cc(-c2ccccc2O)nc1NC(=O)c1cccs1", "KiSS-1 receptor (Homo sapiens, UniProt Q969F8)", "=", 6.92),
    ("N#Cc1c(-c2cccc(NC(=O)CCCN)c2)cc(-c2ccccc2O)nc1NC(=O)c1cccs1", "KiSS-1 receptor (Homo sapiens, UniProt Q969F8)", "=", 7.47),
    ("N#Cc1c(-c2cccc(NC(=O)CCN)c2)cc(-c2ccc(F)cc2O)nc1NC(=O)c1ccco1", "KiSS-1 receptor (Homo sapiens, UniProt Q969F8)", "=", 8.43),
    ("COc1ccc(C(=O)Nc2nc(-c3ccccc3O)cc(-c3cccc(C(=O)NC(C)(C)CN)c3)c2C#N)cc1", "KiSS-1 receptor (Homo sapiens, UniProt Q969F8)", "=", 7.49),
    ("N#Cc1c(-c2cccc(C(=O)NCCN)c2)cc(-c2ccccc2O)nc1NC(=O)c1cccs1", "KiSS-1 receptor (Homo sapiens, UniProt Q969F8)", "=", 7.35),
    ("COc1ccccc1C(=O)Nc1nc(-c2ccccc2O)cc(-c2cccc(C(=O)NCCN)c2)c1C#N", "KiSS-1 receptor (Homo sapiens, UniProt Q969F8)", "=", 7.35),
    ("COc1ccccc1C(=O)Nc1nc(-c2ccccc2O)cc(-c2cccc(C(=O)NC(C)(C)CN)c2)c1C#N", "KiSS-1 receptor (Homo sapiens, UniProt Q969F8)", "=", 7.49),
    ("N#Cc1c(-c2ccccc2C(=O)NCCN)cc(-c2ccccc2O)nc1NC(=O)c1cccs1", "KiSS-1 receptor (Homo sapiens, UniProt Q969F8)", "=", 4.48),
    ("N#Cc1c(-c2cccc(C(=O)NCCN)c2)cc(-c2ccccc2O)nc1NC(=O)c1ccco1", "KiSS-1 receptor (Homo sapiens, UniProt Q969F8)", "=", 7.85),
    ("COc1ccc(-c2cc(-c3cccc(NC(=O)CCN)c3)c(C#N)c(NC(=O)c3ccccc3)n2)c(O)c1", "KiSS-1 receptor (Homo sapiens, UniProt Q969F8)", "=", 6.92),
]

---

# SYSTEM: KiSS-1 receptor (Homo sapiens)
# PROCEDURE DETAILS: Antagonist activity at human GPR54 receptor expressed in CHO cells assessed as inhibition of metastin(40-54)-induced intracellular calcium mobilization by FLIPR assay
# Type: functional, cell-based
pIC50: −log10 of the molar value.

# COMPOUND, pIC50
rows = [
    ("N#Cc1c(-c2cccc(NC(=O)CCCN)c2)cc(-c2ccccc2O)nc1NC(=O)c1cccs1", 5.85),
    ("N#Cc1c(-c2cccc(NC(=O)CCN)c2)cc(-c2ccc(Cl)cc2O)nc1NC(=O)c1cccs1", 5.39),
    ("N#Cc1c(-c2cccc(NC(=O)CCN)c2)cc(-c2ccc(Br)cc2O)nc1NC(=O)c1cccs1", 5.20),
    ("N#Cc1c(-c2cccc(NC(=O)CCN)c2)cc(-c2ccc(F)cc2O)nc1NC(=O)c1cccs1", 5.44),
    ("N#Cc1c(-c2cccc(NC(=O)CCN)c2)cc(-c2ccccc2O)nc1NC(=O)c1ccccc1", 4.62),
    ("Cc1ccc(-c2cc(-c3cccc(NC(=O)CCN)c3)c(C#N)c(NC(=O)c3cccs3)n2)c(O)c1", 6.04),
    ("N#Cc1c(-c2cccc(C(=O)NCCN)c2)cc(-c2ccccc2O)nc1NC(=O)c1cccs1", 5.29),
]

---

# SYSTEM: KiSS-1 receptor (Homo sapiens, UniProt Q969F8)
# PROCEDURE DETAILS: Antagonist activity at human GPR54 receptor expressed in CHO cells assessed as inhibition of metastin(40-54)-induced intracellular calcium mobilization by FLIPR assay
# Type: functional, cell-based

# COMPOUND, UNIT NAME, IC50
records = [
    ("N#Cc1c(-c2cccc(C(=O)NCCN)c2)cc(-c2ccc(F)cc2O)nc1NC(=O)c1ccco1", "µM", 0.66),
    ("CC(C)(CN)CNC(=O)c1cccc(-c2cc(-c3ccc(F)cc3O)nc(NC(=O)c3ccco3)c2C#N)c1", "µM", 2.5),
    ("N#Cc1c(-c2cccc(NC(=O)CCN)c2)cc(-c2ccc(F)cc2O)nc1NC(=O)c1ccco1", "µM", 0.46),
    ("N#Cc1c(-c2cccc(NC(=O)CCN)c2)cc(-c2ccccc2O)nc1NC(=O)c1cccs1", "µM", 1.1),
    ("N#Cc1c(-c2cccc(NC(=O)CN)c2)cc(-c2ccccc2O)nc1NC(=O)c1cccs1", "µM", 2.8),
]
